Tested on: bedstraw (Galium aparine)
Test: Test B pre-/postemergence
Format: in vivo
Conditions: Rate 125 g/ha, Postemergence

{"compound": "Cc1cnc(-n2ccc(C(F)(F)C(F)(F)F)n2)nc1C(=O)c1cccc(OC(F)(F)F)c1 [Compound 62]", "Bedstraw plant response rating": 3}
{"compound": "Cc1cnc(-n2ccc(C(F)(F)F)n2)nc1Cn1ccc(C(F)(F)F)n1 [Compound 52]", "Bedstraw plant response rating": 10}
{"compound": "Cc1cnc(-c2ccc(C(F)(F)F)cc2)nc1C(=O)c1cccc(C(F)(F)F)c1 [Compound 73]", "Bedstraw plant response rating": 9}

----------
Test system: wild oat (Avena fatua)
Assay: Test B pre-/postemergence
Type: in vivo
Conditions: Rate 62 g/ha, Postemergence
measurement.type: Wild oats plant response rating

{"structure.smiles": "Cc1cnc(-c2ccc(C(F)(F)F)cc2)nc1C(=O)c1cccc(C(F)(F)F)c1", "measurement.type": "Wild oats plant response rating", "experimental.result": 6}
{"structure.smiles": "COc1cnc(-n2ccc(C(F)(F)F)n2)nc1Cc1cccc(C(F)(F)F)c1", "measurement.type": "Wild oats plant response rating", "experimental.result": 0}
{"structure.smiles": "O=C(c1cccc(C(F)(F)F)c1)c1ccnc(-n2ccc(C(F)(F)F)n2)n1", "measurement.type": "Wild oats plant response rating", "experimental.result": 0}
{"structure.smiles": "Cc1cnc(-n2cnc(C(F)(F)F)c2)nc1C(=O)c1cccc(C(F)(F)F)c1", "measurement.type": "Wild oats plant response rating", "experimental.result": 3}
{"structure.smiles": "Cc1cnc(-c2ccc(F)c(Cl)c2)nc1Cc1cccc(C#N)c1", "measurement.type": "Wild oats plant response rating", "experimental.result": 0}
{"structure.smiles": "Cc1cnc(-c2ccc(Cl)cc2)nc1Cc1cccc(C(F)(F)F)c1", "measurement.type": "Wild oats plant response rating", "experimental.result": 4}
{"structure.smiles": "Cc1cnc(-n2ccc(C(F)(F)C(F)(F)F)n2)nc1C(=O)c1cccc(C(F)(F)F)c1", "measurement.type": "Wild oats plant response rating", "experimental.result": 2}
{"structure.smiles": "COc1cnc(-n2ccc(C(F)(F)F)n2)nc1C(=O)c1cccc(C(F)(F)F)c1", "measurement.type": "Wild oats plant response rating", "experimental.result": 2}
{"structure.smiles": "CCc1cnc(-n2ccc(C(F)(F)F)n2)nc1C(=O)c1cccc(C(F)(F)F)c1", "measurement.type": "Wild oats plant response rating", "experimental.result": 3}
{"structure.smiles": "Cc1cnc(-c2ccc(Cl)cc2F)nc1Cc1cccc(C(F)(F)F)c1", "measurement.type": "Wild oats plant response rating", "experimental.result": 1}

----------
Tested on: purple nutsedge (Cyperus rotundus)
Assay: Test B pre-/postemergence
Type: in vivo
Parameters: key: 0 is no effect; 10 is complete control
Conditions: Rate 250 g/ha, Postemergence
measurement.type: Plant response rating, Nutsedge

{"structure.smiles": "Cc1cnc(-c2ccc(C(F)(F)F)cc2)nc1Cn1ccc(C#N)n1", "measurement.type": "Plant response rating, Nutsedge", "experimental.result": 0}
{"structure.smiles": "Cc1cnc(-c2ccccc2)nc1Cn1ccc(C(F)(F)F)n1", "measurement.type": "Plant response rating, Nutsedge", "experimental.result": 0}
{"structure.smiles": "Cc1cnc(-c2ccc(C(F)(F)F)cc2)nc1Cn1ccc(C(F)(F)F)n1", "measurement.type": "Plant response rating, Nutsedge", "experimental.result": 3}
{"structure.smiles": "Cc1cnc(-c2ccc(Cl)cc2)nc1Cc1cccc(C#N)c1", "measurement.type": "Plant response rating, Nutsedge", "experimental.result": 0}
{"structure.smiles": "Cc1cnc(-c2ccc(OC(F)(F)F)cc2)nc1Cc1cccc(C(F)(F)F)c1", "measurement.type": "Plant response rating, Nutsedge", "experimental.result": 0}
